System: TK-10
Method Summary: NCI tumour cell line growth inhibition, 48 h
The source made the active and inactive calls. Rule as the data show it: active = GI50 up to about 1.1 µM and inactive = higher.
# key: entry, value: GI50
Property Measured: GI50

compound="CC(=O)O[C@H]1CCN2C(=O)C=CC(OCc3ccccc3)C12 (stereo not given in full)" observed_measurement="> 100 µM (inactive)"
compound="COc1ccc(CC(CO)NC(=O)OCc2ccccc2)cc1Oc1ccc(CC(CO)NC(=O)OCc2ccccc2)cc1 (stereo not given)" observed_measurement="19.4 µM (inactive)"
compound=COc1ccc(C(=C(I)c2ccccc2)c2ccc(OC)cc2)cc1 observed_measurement="> 100 µM (inactive)"
compound=O=C(CNc1ccc(Cl)cc1Cl)Nn1c(-c2ccccc2)nc2ccccc2c1=O observed_measurement="19.5 µM (inactive)"
compound="COc1ccc2[nH]c(C(=O)N3CC(CCl)c4c3cc(N)c3ccccc43)cc2c1 (stereo not given)" observed_measurement="< 0.01 µM (active)"
compound="O=C(c1ccccc1)C(c1ccccc1)C1(O)C(=O)Nc2ccccc21 (stereo not given)" observed_measurement="> 100 µM (inactive)"
compound=COc1cc(O)c2c(O)c3c(c4c2c1[C@]1(C4)C(C)=CCCC1(C)C)[C@H](O)[C@@]1(O)CC(O)=C(C(N)=O)C(=O)[C@@]1(O)C3=O observed_measurement="0.189 µM (active)"
compound=CC(C)(C)N/N=C(\Cc1occc(=O)c1O)C(=O)Nc1ccc([N+](=O)[O-])cc1[N+](=O)[O-] observed_measurement="> 100 µM (inactive)"
compound="CCC1=C(CC2NCCc3ccccc32)CC2c3cc(OC)c(OC)cc3CCN2C1 (stereo not given)" observed_measurement="0.728 µM (active)"
compound="COC(=O)C1CCC2(CC1)NC(=O)NC2=O (stereo not given)" observed_measurement="> 100 µM (inactive)"
compound="CC(=O)O[C@H]1C(=O)[C@@]2(C)C(C(OC(=O)c3ccccc3)[C@]3(O)C[C@H](OC(=O)C(OC(=O)CCCC(=O)NCCCN(C)C)C(NC(=O)c4ccccc4)c4ccccc4)C(C)=C1C3(C)C)C1(OC(C)=O)COC1C[C@@H]2O (stereo not given in full)" observed_measurement="0.0425 µM (active)"
compound="[N-]=[N+]=NC1(c2ccccc2)C(=O)C(Cl)=C(c2ccccc2)N(c2ccccc2)C1=O (stereo not given)" observed_measurement="> 100 µM (inactive)"
compound="CC12CC[C@@H](C(C)(C)O)C1[C@@H](O)CC1(C)C2CCC2[C@@]3(C)CC[C@H](O)C(C)(C)C3C(O)C[C@]21C (stereo not given in full)" observed_measurement="16.4 µM (inactive)"
compound="O=C1CSC(c2ccccc2)N1c1ccc(-n2c(-c3ccccc3)nc3ccccc3c2=O)cc1 (stereo not given)" observed_measurement="> 100 µM (inactive)"
compound="CCC#CCCCCCCCCC(F)C(=O)O (stereo not given)" observed_measurement="> 100 µM (inactive)"
